Values from paper PMC9482650

target: MAST2, Q6P0Q8; experiment: holdup assay; parameters: key: below the threshold = too weak to quantify, mostly under pKd 3.1 to 4; settings: plain residues with an end cap or a label only (N-terminal biotin on a linker: ado-ado)
Sequence (Q6P0Q8 1099-1202): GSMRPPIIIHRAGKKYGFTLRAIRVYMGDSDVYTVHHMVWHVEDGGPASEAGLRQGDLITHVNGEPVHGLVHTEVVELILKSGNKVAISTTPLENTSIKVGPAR
Please enter 1.0 where pKd is greater than or equal to 5, and 0.0 where it is lower.

| Binder | Label Value |
| --- | --- |
| PLATCDETSI [SEMA4F, O95754] | 1.0 |
| HYPASPDSWV [CTNND2, Q9UQB3] | 0.0 |
| VCMGDHWFDV [PRKN, O60260] | 0.0 |
| NNMAFETTHF [SLC5A12, Q1EHB4] | 1.0 |
